# assay_system: factor Xa (Homo sapiens, UniProt P00742)
# Sequence (P00742 235-488 limits assumed): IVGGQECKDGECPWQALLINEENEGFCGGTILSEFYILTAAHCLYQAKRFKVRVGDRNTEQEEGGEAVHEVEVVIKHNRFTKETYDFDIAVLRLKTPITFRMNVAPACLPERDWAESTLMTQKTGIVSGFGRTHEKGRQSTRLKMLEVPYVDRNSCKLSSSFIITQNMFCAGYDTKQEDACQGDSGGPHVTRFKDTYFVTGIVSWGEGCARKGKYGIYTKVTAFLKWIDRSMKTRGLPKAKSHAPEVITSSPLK
# Sequence (P00742 41-179 limits assumed): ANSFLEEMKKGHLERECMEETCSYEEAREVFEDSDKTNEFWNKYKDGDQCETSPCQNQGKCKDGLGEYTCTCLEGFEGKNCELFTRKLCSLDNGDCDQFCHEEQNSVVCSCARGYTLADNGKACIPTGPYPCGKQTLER
recorded_endpoint: IC50 (µM)

I = CCn1c(Cn2c(=O)ccc3cc(OC4CCN(C(C)=N)CC4)ccc32)cc2ccc(C(=N)N)cc21 [Example 14]
II = N=C(N)c1cccc(-c2cccc(Cn3c(=O)ccc4cc(OC5CCNCC5)ccc43)c2)c1 [Example 5]
III = N=C(N)c1ccc2ccc(Cn3c(=O)ccc4cc(OC5CCN(c6ncccn6)CC5)ccc43)cc2c1 [Example 18]
Input line: Consider the molecules listed above. Rank them by IC50 in ascending numerical order. Response format: the labels, sorted as the prompt asks.
Output line: I, III, II
(I: 0.00474 µM, III: 0.58 µM, II: 1.57 µM)

A = CC(=N)N1CCC(Oc2ccc3c(ccc(=O)n3Cc3ccc(-c4ccc(C(=N)N)cc4)cc3)c2)CC1 [Example 13]
B = N=C(N)c1ccc(-c2ccccc2Cn2c(=O)ccc3cc(OC4CCNCC4)ccc32)cc1 [Example 8]
C = CC(=N)N1CCC(Oc2ccc3c(ccc(=O)n3Cc3ccccc3-c3ccc(C(=N)N)cc3)c2)CC1 [Example 10]
Input line: Give the ascending ranking of the items by reported IC50. Response format: the labels, sorted as the prompt asks.
Output line: A, C, B
(A: 50 µM, C: 137 µM, B: 501 µM)
